For each of the binders below, state its EC50.
Assayed Target: SARS-CoV-2 FP peptide (SARS-CoV-2)
Assay Details: peptide ELISA
Form entry: value (µg/mL) — number only.

Check the records and state EC50 for fp.004 (antibody, V domains shown) VH: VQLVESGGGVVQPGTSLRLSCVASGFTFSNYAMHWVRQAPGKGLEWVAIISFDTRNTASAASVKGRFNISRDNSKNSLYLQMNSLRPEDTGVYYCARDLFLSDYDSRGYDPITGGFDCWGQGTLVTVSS VL: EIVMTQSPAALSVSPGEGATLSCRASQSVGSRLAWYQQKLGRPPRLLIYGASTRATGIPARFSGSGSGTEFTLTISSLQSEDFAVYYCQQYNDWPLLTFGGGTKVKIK
0.0352

State its EC50 for this binder: fp.009 (antibody, V domains shown) VH: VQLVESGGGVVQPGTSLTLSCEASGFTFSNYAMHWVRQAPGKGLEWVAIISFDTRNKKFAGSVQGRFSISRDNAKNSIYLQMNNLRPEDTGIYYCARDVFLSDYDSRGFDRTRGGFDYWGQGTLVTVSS VL: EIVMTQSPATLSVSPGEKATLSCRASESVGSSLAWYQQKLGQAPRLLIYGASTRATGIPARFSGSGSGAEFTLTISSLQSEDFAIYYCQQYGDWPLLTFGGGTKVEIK
0.038

Please report the measured EC50 for fp.001 (antibody, V domains shown) VH: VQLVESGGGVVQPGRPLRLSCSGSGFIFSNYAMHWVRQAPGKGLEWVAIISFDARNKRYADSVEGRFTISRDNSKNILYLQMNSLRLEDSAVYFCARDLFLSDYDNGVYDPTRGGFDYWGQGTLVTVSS VL: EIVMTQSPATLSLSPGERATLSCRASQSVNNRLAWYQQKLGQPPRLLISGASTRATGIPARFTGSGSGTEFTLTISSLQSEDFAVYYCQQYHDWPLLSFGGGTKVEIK
0.0249

Kindly indicate its recorded EC50. Item: fp.003 (antibody, V domains shown) VH: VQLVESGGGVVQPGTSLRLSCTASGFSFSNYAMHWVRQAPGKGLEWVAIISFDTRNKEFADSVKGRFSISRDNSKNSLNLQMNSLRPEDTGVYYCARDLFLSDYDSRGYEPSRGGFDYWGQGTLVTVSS VL: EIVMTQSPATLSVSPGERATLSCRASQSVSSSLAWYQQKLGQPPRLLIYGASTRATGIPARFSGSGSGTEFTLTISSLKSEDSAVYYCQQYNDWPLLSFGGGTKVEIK
0.0369

Given fp.002 (antibody, V domains shown) VH: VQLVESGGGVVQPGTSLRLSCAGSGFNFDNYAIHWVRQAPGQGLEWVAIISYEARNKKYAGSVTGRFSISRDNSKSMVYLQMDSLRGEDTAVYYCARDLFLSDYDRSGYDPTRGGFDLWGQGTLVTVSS VL: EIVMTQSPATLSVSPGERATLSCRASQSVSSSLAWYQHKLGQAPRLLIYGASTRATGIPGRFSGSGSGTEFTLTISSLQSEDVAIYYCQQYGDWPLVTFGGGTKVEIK , respond with its EC50.
0.032

Give the reported value of EC50 for this record: fp.006 (antibody, V domains shown) VH: VQLVESGGGVVQPGGSLRLSCAASGFNFNNYALHWVRQAPGKGLEWVAIISYEARNKKYGVSVMGRFSISRDNSKSIMYLEMNSLRVEDTGVYYCARDLFLSDYDRSGYDPTRGGFDHWGQGTLVTVSS VL: EIVMTQSPATLSVSPGERATLSCRASQSVSSSLAWYQHRFGQAPRLLISGASTRATGIPGRFSGSGSGTEFTLTISSLQSEDVAVYYCQQYGDWPLVTFGGGTKVEIK
0.0331

Answer with the recorded EC50 of fp.005 (antibody, V domains shown) VH: VQLVESGGGVVQPGNSLRLSCAASGFRFNNYAMHWVRQAPGKGLEWVAIISYEARNEKYADSVKGRFSISRDNAKNTLYLQMNSLRADDTGVYYCARDLFLSDYDTSGYDRTRGGFDYWGQGALVTVSS VL: EIVMTQSPATLSVSPGERATLSCRASQSVSNGLAWYQHRFGQPPRLLIYGASTRATGIPTRFSGSGSGTEFTLTISSLQSEDFAVYYCQQYDDWPLITFGGGTKVEIK only.
0.0295

Assign EC50 to the following record: fp.008 (antibody, V domains shown) VH: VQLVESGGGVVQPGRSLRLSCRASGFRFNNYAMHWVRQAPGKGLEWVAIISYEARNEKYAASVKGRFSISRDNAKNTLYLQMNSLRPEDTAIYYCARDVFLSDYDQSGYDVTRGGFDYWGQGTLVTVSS VL: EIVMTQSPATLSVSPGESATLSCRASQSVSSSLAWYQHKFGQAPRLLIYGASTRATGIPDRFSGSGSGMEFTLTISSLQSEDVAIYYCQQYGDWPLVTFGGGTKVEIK
0.0366

State, in one line, measured EC50 of fp.011 (antibody, V domains shown) VH: EVQLLESGGGLVQPGGSLRLSCAGSGFTFNNYAMTWVRQAPGRGLEWVSAISGSGGSSHYADSVKGRFTITRDNSKNTLYLQMNSLRAEDTAVYYCAFIDYYSGWSYYYGLDVWGQGTTVTVSS VL: EIVLTQSPATLSLSPGERATLSCRASQGVRTYVAWYQQKPGQAPRLLIYDASNRATGIPARFSGSGSGTDFTLTISSLEPEDFAVYYCQQRYNWPLCSFGQGTKLEIK
0.0363

Hello, please tell me recorded EC50 for this one: fp.010 (antibody, V domains shown) VH: EVQLLESGGGLVQPGGSLRLSCAASGFTFSTYAMNWVRQAPGKGLEWVSAISSSGLSTQYADSVRGRFTISRDTSKNTLYLHMNSLRAGDTAVYYCAKVEYSGYDPRGPFDSWGQGTLVTVSS VL: DIQMTQSPSTLSASVGDRVTITCRASQSISGWLAWYQQKPGRAPKLLIYKASSLERGVPSRFSGSGSGTEFTLTISSLQPDDFATYYCQEYSSYPLCTFGQGTKLEIK
0.119

Source listed as patent US20250382354A1.
